# assay-overview: modulators of HCV replicon luciferase signal, primary screen, HCV replication inhibitor project, Huh7 cells, luciferase reporter (AID 1109);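 further: huh7 hepatoma cells harbouring a luciferase neomycin HCV replicon reporter; luciferase luminescence as measure of HCV replicon replication; test concentration not given here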
# measurement-parameters: 48 h, higher = more signal
Label scheme for z-score: lower than -1 is not fulfilled, -1 and above is fulfilled.

{"compound": "CCCNC(=O)[C@@]1(c2ccc([N+](=O)[O-])cc2)CC(=O)N(CC23CC4CC(CC(C4)C2)C3)[C@@H]1c1ccc(CO)cc1", "class-assignment": "not fulfilled"}
{"compound": "CC(C)C(=C=CC[C@H](O)c1cccc(OCCO)c1)C[C@H](O)COCc1ccccc1", "class-assignment": "fulfilled"}
{"compound": "COc1cc(C(O)C2C=CC3C(=O)N(c4ccccc4)C(=O)C3N2Nc2ccc(C#N)cc2)cc(OC)c1OC (configuration not stated)", "class-assignment": "fulfilled"}
{"compound": "C=CC[C@@H](OC(=O)Nc1ccc(OC)cc1)c1ccc(O)c2ccccc12", "class-assignment": "not fulfilled"}
{"compound": "COc1ccc(C(=O)Nc2cccc(CN3C(=O)[C@]4(O[C@H](CC(=O)N5CCC[C@H]5CO)[C@@H]([Si](C)(C)c5ccc(OC)cc5)[C@@H]4C)c4ccccc43)c2)cc1", "class-assignment": "not fulfilled"}
{"compound": "COc1ccc(CCNC(=O)[C@@]2(Sc3ccc(C)cc3)CC(=O)N(Cc3ccccc3Cl)[C@@H]2c2ccc(CO)cc2I)cc1", "class-assignment": "not fulfilled"}
{"compound": "CC1CC/C=C\\[C@H]2OC34C=CCN(Cc5ccccc5)C(=O)[C@H]3N(CCCCCO)C(=O)[C@@H]4C2C(=O)O1 (some centres not stated)", "class-assignment": "fulfilled"}
{"compound": "COc1ccc(C(O)C2C=CC3C(=O)N(c4ccccc4)C(=O)C3N2Nc2ccc([N+](=O)[O-])cc2)cc1OCc1ccccc1 (configuration not stated)", "class-assignment": "fulfilled"}
{"compound": "CC(C)c1ccc(NN2C(C(O)c3ccc(N(C)C)cc3)C=CC3C(=O)N(c4ccccc4)C(=O)C32)cc1 (configuration not stated)", "class-assignment": "fulfilled"}
{"compound": "COc1ccc(C#Cc2ccc3c(c2)[C@]2(C(=O)N3)[C@H](c3ccc(O)cc3)N3[C@H](c4ccccc4)[C@H](c4ccccc4)OC(=O)[C@H]3[C@@H]2C(=O)NC[C@H](O)c2ccccc2)cc1", "class-assignment": "not fulfilled"}
